target: T-p53C-Y220C (Homo sapiens, UniProt P04637, M133L/N239Y/N268D/V203A/Y220C); construct: For all other experiments, the DNA coding for residues 94-312 of T-p53C was inserted into a modified pET24a(+) vector; 6xHis tag + B. stearothermophilus dihydrolipoyl acetyltransferase lipoyl domain (aa 1-85) + TEV site (N, cleaved yes); made in house; host or cells: Escherichia coli BL21 (DE3) or C41 (DE3); assay: Thermal denaturation using fluorescence (Sypro Orange); type: binding; details: further compounds; 10 μM protein
quantity: ΔTm (° C.)

CCn1c2ccccc2c2cc(NC(=O)COC(=O)CNC(=O)c3ccc([N+](=O)[O-])cc3)ccc21 [PK108]	0.335 °C
CCn1c(C)c(C(=O)NCCN(C)C)c2cc(OC)ccc21 [PK402]	0.19 °C
[2H]C(=O)Nc1ccc(N2CCN(C)CC2)cc1C [PK295]	0.244 °C
CCn1cc(C(=O)NCc2cccc(S(=O)(=O)N3CCOCC3)c2)c2ccccc21 [PK306]	0.26 °C
CCn1cc(C(=O)OCCOc2ccccc2C(C)=O)c2ccccc21 [PK309]	0.29 °C
[2H]NNS(=O)(=O)c1cccc(C(F)(F)F)c1 [PK255]	0.26 °C
CCn1c2ccccc2c2cc(NC(=O)COC(=O)Cn3nc(C)c([N+](=O)[O-])c3C)ccc21 [PK118]	0.28 °C
CCn1c2ccccc2c2cc(CN3CCCC(C4NC(=O)NC4C)C3)ccc21 (stereo not shown) [PK218]	0.31 °C
CCn1cc(C(=O)NCc2cccc(NC(=O)C3CC3)c2)c2ccccc21 [PK307]	0.26 °C
CCn1c2ccccc2c2cc(CNCCNCCO)ccc21 [PK392]	0.70 °C

* * *

target: T-p53C-Y220C (Homo sapiens, UniProt P04637, M133L/N239Y/N268D/V203A/Y220C); construct: For all other experiments, the DNA coding for residues 94-312 of T-p53C was inserted into a modified pET24a(+) vector; 6xHis tag + B. stearothermophilus dihydrolipoyl acetyltransferase lipoyl domain (aa 1-85) + TEV site (N, cleaved yes); made in house; host or cells: Escherichia coli BL21 (DE3) or C41 (DE3); assay: Thermal denaturation using fluorescence (Sypro Orange); type: binding; settings: further compounds; 10 μM protein
Parameter: ΔTm (° C.). Scope: all listed entries.
quantity: ΔTm (° C.) (°C)

CCn1c2ccccc2c2cc(NC(=O)CN3CCOCC3)ccc21	0.24
CCn1c2ccccc2c2cc(CN3CCOCC3)ccc21	0.15
CCn1c2ccccc2c2cc(CNCCN3CCOCC3)ccc21	0.35
[2H]C(=O)OCC(=O)NC(=O)NC1CCCC1	0.15
CCn1c(-c2cn(CC)c3ccccc23)n[nH]c1=S	0.3
CCn1c2ccccc2c2cc(NC(=O)C3=COCCO3)ccc21	0.16
CCOC(=O)c1c(C)n(C)c2ccc(O)cc12	0.2
CNCc1ccc2c(c1)c1ccccc1n2CCS	0.28
CCn1cc(C(=O)Nc2ccc(OC)cc2)c2ccccc21	0.2
CCn1cc(C=C(C#N)C#N)c2ccccc21	0.2
CCn1c2ccccc2c2cc(CNCCCn3ccnc3)ccc21	0.9

* * *

biological target: T-p53C-Y220C (Homo sapiens, UniProt P04637, M133L/N239Y/N268D/V203A/Y220C); construct: For all other experiments, the DNA coding for residues 94-312 of T-p53C was inserted into a modified pET24a(+) vector; 6xHis tag + B. stearothermophilus dihydrolipoyl acetyltransferase lipoyl domain (aa 1-85) + TEV site (N, cleaved yes); made in house; host or cells: Escherichia coli BL21 (DE3) or C41 (DE3); assay: Thermal denaturation using fluorescence (Sypro Orange); type: binding; conditions: further studies on compounds described above; 10 μM protein
Parameter: ΔTm (° C.). Scope: all listed entries.
quantity: ΔTm (° C.) (°C)

CCn1c2ccccc2c2cc(CNCCc3c[nH]c4ccccc34)ccc21	0.3
CCn1c2ccccc2c2cc(NC(C)C(=O)NC(N)=O)ccc21 (centres unmarked)	0.63
CCn1c2ccccc2c2cc(CN3CCC(N4CCN(CCO)CC4)CC3)ccc21	0.4
CCn1c2ccccc2c2cc(CN3CCNCC3)ccc21	0.25
CCn1c2ccccc2c2cc(CNCCO)ccc21	0.58
CCn1c2ccccc2c2cc(NC(=O)c3ccc(OCC(N)=O)cc3)ccc21	0.64
CCn1c2ccccc2c2cc(CN3CCC4(CC3)CC4C(=O)NCCc3ccccn3)ccc21 (centres unmarked)	0.68
CCn1c2ccccc2c2cc(NC(=O)COC(=O)c3ccc(-n4cnnn4)cc3)ccc21	0.54
CCn1c2ccccc2c2cc(NC(=S)Nc3cc(S(=O)(=O)N(C)C)ccc3C)ccc21	0.37
CCn1c2ccccc2c2cc(CN3CCC(N4CCCCC4)CC3)ccc21	0.39
CCn1c2ccccc2c2cc(NC(=O)COC(=O)c3cc(C(=O)OC)cc([N+](=O)[O-])c3)ccc21	0.3
CCn1c2ccccc2c2cc(NC(=O)CN3C(=O)NC(C)(c4ccc(C)cc4)C3=O)ccc21 (centres unmarked)	0.37
Cc1ccc(CN2C[C@@H]3C[C@@H](C)N4CCC[C@@]34C2=O)o1	0.40
CCCN1CCN(C(C)C(=O)Nc2ccc3c(c2)c2ccccc2n3CC)CC1 (centres unmarked)	0.26
CCn1c2ccccc2c2cc(CN(C)C(=O)c3nccnc3N)ccc21	0.51
CCn1c2ccccc2c2cc(CNCCc3ccccc3)ccc21	0.38
CCn1c2ccccc2c2cc(NC(=O)Cc3ccc(S(=O)(=O)N4CCOCC4)s3)ccc21	0.49
CCNC(=S)Nc1ccc2c(c1)c1ccccc1n2CC	0.4
CCn1c2ccccc2c2cc(NC(=O)C(C)Sc3nc(N)cc(=O)[nH]3)ccc21 (centres unmarked)	0.24
CCn1c2ccccc2c2cc(CN3CCN(C)C(CCO)C3)ccc21 (centres unmarked)	0.493
CCn1c2ccccc2c2cc(NC(=O)CN3C(=O)NC(C)(c4ccc(OC)cc4)C3=O)ccc21 (centres unmarked)	0.42
CCn1c2ccccc2c2cc(NC(=O)CN3C(=O)c4ccccc4S3(=O)=O)ccc21	0.47
CCn1c2ccccc2c2cc(NC(=O)CN(CC(N)=O)C(C)C)ccc21	0.46
CCn1c2ccccc2c2cc(NC(=O)CSc3nnc(N)s3)ccc21	0.53
CCn1c2ccccc2c2cc(NC(=O)COC(=O)c3ccc(NC(=O)CC#N)cc3)ccc21	0.513
CCn1c2ccccc2c2cc(CN3CCCC(N4CCOCC4)C3)ccc21 (centres unmarked)	0.55
CCn1c2ccccc2c2cc(CN3CCC(n4cc(C(=O)NCCO)nn4)CC3)ccc21	0.54
COc1ccc(N2CCN(Cc3cc4c(cc3O)[nH]c3ccccc34)CC2)cc1	0.51
CCn1c2ccccc2c2cc(NC(=O)C(C)OC(=O)c3ccc([N+](=O)[O-])o3)ccc21 (centres unmarked)	0.48
CCn1c2ccccc2c2cc(NC(=O)C(C)N3CCN(CC(N)=O)CC3)ccc21 (centres unmarked)	0.22
CCn1c2ccccc2c2cc(NC(=O)CCc3c(C)[nH]c(=O)c(C#N)c3C)ccc21	0.48
CCn1c2ccccc2c2cc(C3CC4CN(C)C(=O)C45CCCN35)ccc21 (centres unmarked)	1.0
CCn1c2ccccc2c2cc(NC(=O)C(C)OC(=O)c3ccc(-n4cnnn4)cc3)ccc21 (centres unmarked)	0.4
CCn1c2ccccc2c2cc(CNCCCn3cc(C(=O)N4CCOCC4)nn3)ccc21	0.873
CCn1c2ccccc2c2cc(CN(C)C3CCN(C)CC3)ccc21	0.34
CCn1c2ccccc2c2cc(CNCCN(C)C)ccc21	0.57
CCN(CCN(C)C)Cc1ccc2c(c1)c1ccccc1n2CC	0.23
CCn1c2ccccc2c2cc(CN(C)C(=O)NC3CCS(=O)(=O)C3)ccc21 (centres unmarked)	0.225

* * *

molecular target: T-p53C-Y220C (Homo sapiens, UniProt P04637, M133L/N239Y/N268D/V203A/Y220C); construct: For all other experiments, the DNA coding for residues 94-312 of T-p53C was inserted into a modified pET24a(+) vector; 6xHis tag + B. stearothermophilus dihydrolipoyl acetyltransferase lipoyl domain (aa 1-85) + TEV site (N, cleaved yes); made in house; host or cells: Escherichia coli BL21 (DE3) or C41 (DE3); assay: Thermal denaturation using capillary DSC; type: binding; conditions: increase in Tm on adding 250 μM of the test compound; 20 μM protein
Tick yes (1) if ΔTm is 0.4 °C or greater. Tick no (0) if ΔTm is less than 0.4 °C.

CCn1c2ccccc2c2cc(CNCCc3c[nH]c4ccccc34)ccc21	no (0)
CCn1c2ccccc2c2cc(CN3CCC(n4cc(C(=O)NCCO)nn4)CC3)ccc21	yes (1)
CCn1c2ccccc2c2cc(C3CC4CN(C)C(=O)C45CCCN35)ccc21 (stereo not drawn)	yes (1)
CCn1c2ccccc2c2cc(NC(=O)COC(=O)c3cc(C(=O)OC)cc([N+](=O)[O-])c3)ccc21	no (0)
CCn1c2ccccc2c2cc(NC(=O)CN3C(=O)NC(C)(c4ccc(OC)cc4)C3=O)ccc21 (stereo not drawn)	yes (1)
CCn1c2ccccc2c2cc(NC(=O)c3ccc(OCC(N)=O)cc3)ccc21	yes (1)
CCn1c2ccccc2c2cc(NC(=O)COC(=O)c3ccc(NC(=O)CC#N)cc3)ccc21	yes (1)
CCn1c2ccccc2c2cc(CN3CCC4(CC3)CC4C(=O)NCCc3ccccn3)ccc21 (stereo not drawn)	yes (1)
